Tested on: AMPA receptor
EXPERIMENT: AMPA receptor inhibition, whole-cell patch clamp, KA-stimulated currents in primary cultures of rat neocortex
Format: cell-based
CONDITION NOTES: 10 μM drug, KA 50 μM, rat cortical neurons
TEST READOUT: AMPA % INHIBITION (10 μM drug) (%)

> print(dat)
                                   molecule    measured.on                    test.readout  value
1  CC(C)NC(=O)N1N=C(c2ccc(N)cc2)c2cc3c(cc2C1C)OCO3 (stereo not drawn)  AMPA receptor  AMPA % INHIBITION (10 μM drug)     45
2  CCC1c2cc3c(cc2C(c2ccc(N)cc2)=NN1C(=O)NC)OCO3 (stereo not drawn)  AMPA receptor  AMPA % INHIBITION (10 μM drug)     36
3  CCNC(=O)N1N=C(c2ccc(N)cc2)c2cc3c(cc2C1C)OCO3 (stereo not drawn)  AMPA receptor  AMPA % INHIBITION (10 μM drug)     55
4  CC1c2cc3c(cc2C(c2ccc(N)cc2)=NN1C(=O)NC(C)(C)C)OCO3 (stereo not drawn)  AMPA receptor  AMPA % INHIBITION (10 μM drug)     70
5  CCCCNC(=O)N1N=C(c2ccc(N)cc2)c2cc3c(cc2C1C)OCO3 (stereo not drawn)  AMPA receptor  AMPA % INHIBITION (10 μM drug)     86
6  CCCNC(=O)N1N=C(c2ccc(N)cc2)c2cc3c(cc2C1C)OCO3 (stereo not drawn)  AMPA receptor  AMPA % INHIBITION (10 μM drug)     80
7  CC1c2cc3c(cc2C(c2ccc(N)cc2)=NN1C(=O)N(C)C)OCO3 (stereo not drawn)  AMPA receptor  AMPA % INHIBITION (10 μM drug)     33
8  CNC(=O)N1N=C(c2ccc(N)cc2)c2cc3c(cc2C1C)OCO3 (stereo not drawn)  AMPA receptor  AMPA % INHIBITION (10 μM drug)     20
9  CC(=O)N1N=C(c2ccc(N)cc2)c2cc3c(cc2C1C)OCO3 (stereo not drawn)  AMPA receptor  AMPA % INHIBITION (10 μM drug)     20
